- Test system: soybean (Glycine max)
- EXPERIMENT NOTES: Test A1 preemergence, soybean
- Assay type: in vivo
- EXPERIMENTAL CONDITIONS: 125 g ai/ha, 0 to 100 scale (0 no effect, 100 complete control)
PROPERTY MEASURED: Plant response rating, Soybean
Form rule: numeric answer, no unit written next to it.

Some solved entries appear below for comparison.
[[record]]
compound = "Cc1cc(C)c(N2Cc3cccc(C)c3C2=O)cc1NS(=O)(=O)Cl [Compound 408]"
test_result = 50

[[record]]
compound = "Cc1cc(C)c(N2Cc3cccc(Br)c3C2=O)cc1NS(=O)(=O)Cl [Compound 415]"
test_result = 0

[[record]]
compound = "COc1cccc2c1C(=O)N(c1cc(N(COC(=O)C(C)(C)C)S(=O)(=O)Cl)c(C)cc1C)C2 [Compound 413]"
test_result = 50


Then there is this compound:
Give Plant response rating, Soybean for this entry on soybean (Glycine max): CCOc1cccc2c1C(=O)N(c1cc(N(COC(=O)C(C)(C)C)S(=O)(=O)Cl)c(C)cc1C)C2 [Compound 414]
0
